Tested on: Ovarian
protocolDetails: cells
Assay type: cell-based
statedConditions: Homo sapiens, 48 h, read-out: TGI Ovarian
Catalogue of IC (TGI) readings, one per entry.
State the answer as a number, implicitly in µM.

>  <compound>
COc1cc(/C=C2\C(=O)Nc3cc(Cl)ccc32)cc(OC)c1OC

>  <IC (TGI) / µM>
5.4

$$$$

The compound identified as `COc1ccc(CN2C(=O)/C(=C/c3cc(OC)c(OC)c(OC)c3)c3cc(OC)ccc32)cc1` registered its IC (TGI) at 8.9

The compound identified as `COc1cc(/C=C2\C(=O)Nc3ccc(N(C)C)cc32)cc(OC)c1OC` registered its IC (TGI) at 32.4

The compound identified as CC[C@]1(O)C[C@H]2CN(CCc3c([nH]c4ccccc34)[C@@](C(=O)OC)(c3cc4c(cc3OC)N(C=O)[C@H]3[C@@](O)(C(=O)OC)[C@H](OC(C)=O)[C@]5(CC)C=CCN6CC[C@]43[C@@H]65)C2)C1 [Vincristine, reference compound] registered its IC (TGI) at 19.9

====

System: CNS
protocolDetails: cells
Assay type: cell-based
statedConditions: Homo sapiens, 48 h, read-out: TGI CNS
outcomeMeasure: IC (TGI)

// below: answered compounds
>  <compound>
COc1cc(/C=C2/C(=O)N(C)c3ccc(O)cc32)cc(OC)c1OC [Compound 10]

>  <IC (TGI)>
17.4 µM

$$$$
>  <compound>
COc1cc(/C=C2\C(=O)Nc3cc(OC(F)(F)F)ccc32)cc(OC)c1OC [Compound 9]

>  <IC (TGI)>
7.4 µM

$$$$
>  <compound>
COc1ccc(CN2C(=O)/C(=C/c3cc(OC)c(OC)c(OC)c3)c3cc(OC)ccc32)cc1 [Compound 15]

>  <IC (TGI)>
7.4 µM

$$$$
>  <compound>
COc1cc(/C=C2\C(=O)Nc3cc(Cl)ccc32)cc(OC)c1OC [Compound 8]

>  <IC (TGI)>
5 µM

$$$$

Then there is this compound:
The compound identified as CC[C@]1(O)C[C@H]2CN(CCc3c([nH]c4ccccc34)[C@@](C(=O)OC)(c3cc4c(cc3OC)N(C=O)[C@H]3[C@@](O)(C(=O)OC)[C@H](OC(C)=O)[C@]5(CC)C=CCN6CC[C@]43[C@@H]65)C2)C1 [Vincristine, reference compound] registered its IC (TGI) at 6.3 µM
